Test system: Staphylococcus aureus
protocol.description: Antibacterial activity against methicillin-resistant Staphylococcus aureus ATCC 33591 by CLSI M11-A7 protocol based method
Format: functional
Values of MIC strictly less than 2 µg/mL map to yes (1), and values of at least 2 µg/mL map to no (0).

Lab log: compare recorded MIC with 2 µg/mL; is it strictly lower for `COc1cc2nccc(Nc3ccc(F)c(Cl)c3)c2cc1OCc1ccc(C(C)C)cc1` ?
yes (1)

Lab log: compare recorded MIC with 2 µg/mL; is it strictly lower for `COc1cc2nccc(Nc3ccc(C)cc3)c2cc1OCc1ccc(C)cc1` ?
no (0)

* * *

Tested on: Staphylococcus aureus
protocol.description: Antibacterial activity against methicillin-resistant Staphylococcus aureus ATCC 33591 by CLSI M11-A7 protocol based method
Assay type: functional
Reported MIC values are given for each entry in this list.
Field format: number, assumed µg/mL, no unit text.

// solved cases for MIC follow
{"compound": "CCCCCCCCCC(=O)N[C@@H](Cc1c[nH]c2ccccc12)C(=O)N[C@@H](CC(N)=O)C(=O)N[C@@H](CC(=O)O)C(=O)N[C@@H]1C(=O)NCC(=O)N[C@@H](CCCN)C(=O)N[C@@H](CC(=O)O)C(=O)N[C@H](C)C(=O)N[C@@H](CC(=O)O)C(=O)NCC(=O)N[C@H](CO)C(=O)N[C@@H]([C@H](C)CC(=O)O)C(=O)N[C@@H](CC(=O)c2ccccc2N)C(=O)O[C@@H]1C [DAPTOMYCIN]", "u": "µg/mL", "MIC": 0.5}
{"compound": "COc1cc2nccc(Nc3ccc(C(F)(F)F)cc3)c2cc1OCc1ccc(C(F)(F)F)cc1", "u": "µg/mL", "MIC": 0.75}
{"compound": "COc1cc2nccc(Nc3ccc(F)c(Cl)c3)c2cc1OCCOc1ccccc1", "u": "µg/mL", "MIC": 3}

Please give the measured MIC for this compound: `COc1cc2nccc(Nc3ccc(C)cc3)c2cc1OCc1ccc(C(F)(F)F)cc1`
3

Please give the measured MIC for this compound: `COc1cc2nccc(Nc3cccc(C(F)(F)F)c3)c2cc1OCc1ccc(C(F)(F)F)cc1`
3

Please give the measured MIC for this compound: `COc1cc2nccc(Nc3ccc(F)c(Cl)c3)c2cc1OCc1ccccc1C`
1.5

Please give the measured MIC for this compound: `COc1cc2nccc(Nc3ccc(F)c(Cl)c3)c2cc1OCc1ccc(C(F)(F)F)cc1`
1.5

The values you see were collected from ChEMBL document CHEMBL4118238.
